measured on: eIF4E (Mus musculus)
assay name: fluorescence anisotropy (FA) competition assay with eIF4E
test context: Table S2; 25 °C, probe m^7GTP-triazol-FAM 10 nM, eIF4E 100 nM
property label: EC50 (µM)
Only the number, expressed in µM, is required.

>>> meas_value("CO[C@@H]1[C@H](O)[C@@H](COP(=O)(O)OP(=O)([O-])OP(=O)(O)OC[C@H]2O[C@@H](n3cnc4c(=O)[nH]c(N)nc43)[C@H](O)[C@@H]2O)O[C@H]1n1c[n+](Cc2ccc(Cl)cc2)c2c(O)nc(N)nc21")
0.19
>>> meas_value("Cc1cccc(C[n+]2cn([C@@H]3O[C@H](COP(=O)(O)OP(=O)([O-])OP(=O)(O)OC[C@H]4O[C@@H](n5cnc6c(=O)[nH]c(N)nc65)[C@H](O)[C@@H]4O)[C@@H](O)[C@H]3O)c3nc(N)nc(O)c32)c1")
0.67
>>> meas_value("Nc1nc(O)c2c(n1)n([C@@H]1O[C@H](COP(=O)(O)OP(=O)([O-])OP(=O)(O)OC[C@H]3O[C@@H](n4cnc5c(=O)[nH]c(N)nc54)[C@H](O)[C@@H]3O)[C@@H](O)[C@H]1O)c[n+]2Cc1ccc(F)cc1F")
0.87
>>> meas_value("Nc1nc(O)c2c(n1)n([C@@H]1O[C@H](COP(=O)(O)OP(=O)([O-])OP(=O)(O)OC[C@H]3O[C@@H](n4cnc5c(=O)[nH]c(N)nc54)[C@H](O)[C@@H]3O)[C@@H](O)[C@H]1O)c[n+]2Cc1ccc(F)cc1")
0.24
>>> meas_value("CC(C)c1ccc(C[n+]2cn([C@@H]3O[C@H](COP(=O)(O)OP(=O)([O-])OP(=O)(O)OC[C@H]4O[C@@H](n5cnc6c(=O)[nH]c(N)nc65)[C@H](O)[C@@H]4O)[C@@H](O)[C@H]3O)c3nc(N)nc(O)c32)cc1")
1.3
>>> meas_value("CO[C@@H]1[C@H](O)[C@@H](COP(=O)(O)OP(=O)([O-])OP(=O)(O)OC[C@H]2O[C@@H](n3cnc4c(=O)[nH]c(N)nc43)[C@H](O)[C@@H]2O)O[C@H]1n1c[n+](Cc2ccccc2)c2c(O)nc(N)nc21")
0.18
>>> meas_value("Cc1ccccc1C[n+]1cn([C@@H]2O[C@H](COP(=O)(O)OP(=O)([O-])OP(=O)(O)OC[C@H]3O[C@@H](n4cnc5c(=O)[nH]c(N)nc54)[C@H](O)[C@@H]3O)[C@@H](O)[C@H]2O)c2nc(N)nc(O)c21")
3.1
>>> meas_value("Nc1nc(O)c2c(n1)n([C@@H]1O[C@H](COP(=O)(O)OP(=O)([O-])OP(=O)(O)OC[C@H]3O[C@@H](n4cnc5c(=O)[nH]c(N)nc54)[C@H](O)[C@@H]3O)[C@@H](O)[C@H]1O)c[n+]2Cc1ccc(F)c(F)c1")
0.88
>>> meas_value("Nc1nc(O)c2c(n1)n([C@@H]1O[C@H](COP(=O)(O)OP(=O)([O-])OP(=O)(O)OC[C@H]3O[C@@H](n4cnc5c(=O)[nH]c(N)nc54)[C@H](O)[C@@H]3O)[C@@H](O)[C@H]1O)c[n+]2Cc1ccc([N+](=O)[O-])cc1")
0.52
>>> meas_value("Nc1nc(O)c2c(n1)n([C@@H]1O[C@H](COP(=O)(O)OP(=O)([O-])OP(=O)(O)OC[C@H]3O[C@@H](n4cnc5c(=O)[nH]c(N)nc54)[C@H](O)[C@@H]3O)[C@@H](O)[C@H]1O)c[n+]2Cc1ccc(C(F)(F)F)cc1")
0.59

Ask: # query: EC50 of entry Nc1nc(O)c2c(n1)n([C@@H]1O[C@H](COP(=O)(O)OP(=O)([O-])OP(=O)(O)OC[C@H]3O[C@@H](n4cnc5c(=O)[nH]c(N)nc54)[C@H](O)[C@@H]3O)[C@@H](O)[C@H]1O)c[n+]2Cc1ccccc1
Reply: 0.27

Ask: # query: EC50 of entry Nc1nc(O)c2c(n1)n([C@@H]1O[C@H](COP(=O)(O)OP(=O)([O-])OP(=O)(O)OC[C@H]3O[C@@H](n4cnc5c(=O)[nH]c(N)nc54)[C@H](O)[C@@H]3O)[C@@H](O)[C@H]1O)c[n+]2Cc1cccc2ccccc12
Reply: 2.1

Ask: # query: EC50 of entry Cn1c[n+]([C@@H]2O[C@H](COP(=O)(O)OP(=O)([O-])OP(=O)(O)OC[C@H]3O[C@@H](n4cnc5c(=O)[nH]c(N)nc54)[C@H](O)[C@@H]3O)[C@@H](O)[C@H]2O)c2nc(N)[nH]c(=O)c21 [m^7GpppG, reference compound]
Reply: 0.41

Ask: # query: EC50 of entry Cc1cc(C)cc(C[n+]2cn([C@@H]3O[C@H](COP(=O)(O)OP(=O)([O-])OP(=O)(O)OC[C@H]4O[C@@H](n5cnc6c(=O)[nH]c(N)nc65)[C@H](O)[C@@H]4O)[C@@H](O)[C@H]3O)c3nc(N)nc(O)c32)c1
Reply: 1.1

###

compounds and their reported Kd
measured on: eIF4E (Mus musculus, UniProt P63073)
Sequence (P63073 whole entry): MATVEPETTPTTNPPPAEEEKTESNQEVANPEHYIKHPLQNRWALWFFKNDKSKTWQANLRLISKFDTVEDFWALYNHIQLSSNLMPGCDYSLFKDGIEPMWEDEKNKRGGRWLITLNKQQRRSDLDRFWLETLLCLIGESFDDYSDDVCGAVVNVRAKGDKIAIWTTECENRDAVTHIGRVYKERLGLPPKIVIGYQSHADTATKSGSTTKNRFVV
assay name: fluorescence anisotropy (FA) competition assay with eIF4E
Assay type: binding
test context: Table S2; calculated from EC50
Please provide the amount together with its unit, number first.

>>> meas_value("Cc1cccc(C[n+]2cn([C@@H]3O[C@H](COP(=O)(O)OP(=O)([O-])OP(=O)(O)OC[C@H]4O[C@@H](n5cnc6c(=O)[nH]c(N)nc65)[C@H](O)[C@@H]4O)[C@@H](O)[C@H]3O)c3nc(N)nc(O)c32)c1")
"222 nM"

Continue with the compound presented below.
Ask: # query: Kd of entry CC(C)c1ccc(C[n+]2cn([C@@H]3O[C@H](COP(=O)(O)OP(=O)([O-])OP(=O)(O)OC[C@H]4O[C@@H](n5cnc6c(=O)[nH]c(N)nc65)[C@H](O)[C@@H]4O)[C@@H](O)[C@H]3O)c3nc(N)nc(O)c32)cc1
Reply: 444 nM

###

measured on: eIF4E (Mus musculus)
assay name: fluorescence anisotropy (FA) competition assay with eIF4E
Type: binding
test context: Table S2; calculated from EC50
property label: pKd
Scale for pKd: -log10 of concentration given in mol/L; no unit attached.

>>> meas_value("Nc1nc(O)c2c(n1)n([C@@H]1O[C@H](COP(=O)(O)OP(=O)([O-])OP(=O)(O)OC[C@H]3O[C@@H](n4cnc5c(=O)[nH]c(N)nc54)[C@H](O)[C@@H]3O)[C@@H](O)[C@H]1O)c[n+]2Cc1ccc([N+](=O)[O-])cc1")
6.77
>>> meas_value("Cc1ccccc1C[n+]1cn([C@@H]2O[C@H](COP(=O)(O)OP(=O)([O-])OP(=O)(O)OC[C@H]3O[C@@H](n4cnc5c(=O)[nH]c(N)nc54)[C@H](O)[C@@H]3O)[C@@H](O)[C@H]2O)c2nc(N)nc(O)c21")
5.95
>>> meas_value("Cc1cc(C)cc(C[n+]2cn([C@@H]3O[C@H](COP(=O)(O)OP(=O)([O-])OP(=O)(O)OC[C@H]4O[C@@H](n5cnc6c(=O)[nH]c(N)nc65)[C@H](O)[C@@H]4O)[C@@H](O)[C@H]3O)c3nc(N)nc(O)c32)c1")
6.42

Continue with the compound presented below.
Ask: # query: pKd of entry Nc1nc(O)c2c(n1)n([C@@H]1O[C@H](COP(=O)(O)OP(=O)([O-])OP(=O)(O)OC[C@H]3O[C@@H](n4cnc5c(=O)[nH]c(N)nc54)[C@H](O)[C@@H]3O)[C@@H](O)[C@H]1O)c[n+]2Cc1ccc(C(F)(F)F)cc1
Reply: 6.71

###

measured on: eIF4E (Mus musculus)
assay name: fluorescence anisotropy (FA) competition assay with eIF4E
Format: binding
test context: Table S2; calculated from EC50
property label: pKd
Scale for pKd: -log10 of concentration given in mol/L; no unit attached.

>>> meas_value("Cc1ccc(C[n+]2cn([C@@H]3O[C@H](COP(=O)(O)OP(=O)([O-])OP(=O)(O)OC[C@H]4O[C@@H](n5cnc6c(=O)[nH]c(N)nc65)[C@H](O)[C@@H]4O)[C@@H](O)[C@H]3O)c3nc(N)nc(O)c32)cc1")
6.53

Ask: # query: pKd of entry Nc1nc(O)c2c(n1)n([C@@H]1O[C@H](COP(=O)(O)OP(=O)([O-])OP(=O)(O)OC[C@H]3O[C@@H](n4cnc5c(=O)[nH]c(N)nc54)[C@H](O)[C@@H]3O)[C@@H](O)[C@H]1O)c[n+]2Cc1ccc(Cl)cc1
Reply: 6.99

###

measured on: UniProtKB Q96C86
Sequence (Q96C86 whole entry): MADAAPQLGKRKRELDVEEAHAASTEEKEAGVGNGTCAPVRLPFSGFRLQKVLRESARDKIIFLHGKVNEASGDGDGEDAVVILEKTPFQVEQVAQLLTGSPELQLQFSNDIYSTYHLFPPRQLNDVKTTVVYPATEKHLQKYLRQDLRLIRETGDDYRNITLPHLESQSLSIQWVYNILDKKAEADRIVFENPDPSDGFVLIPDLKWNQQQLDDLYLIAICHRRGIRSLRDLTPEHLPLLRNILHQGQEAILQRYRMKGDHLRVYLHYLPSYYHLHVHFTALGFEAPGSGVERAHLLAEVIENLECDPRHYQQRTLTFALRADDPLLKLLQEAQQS
Assay type: in vitro ADME
test context: 100 μM compound, 20 nM hDcpS, 37 °C, 1 h
property label: hDcpS Assay: fraction of the cap remaining after 1 h incubation with DcpS
Response field accepts a number only; no unit should be typed.

Ask: # query: hDcpS Assay: fraction of the cap remaining after 1 h incubation with DcpS of entry Cc1cc(C)cc(C[n+]2cn([C@@H]3O[C@H](COP(=O)(O)OP(=O)([O-])OP(=O)(O)OC[C@H]4O[C@@H](n5cnc6c(=O)[nH]c(N)nc65)[C@H](O)[C@@H]4O)[C@@H](O)[C@H]3O)c3nc(N)nc(O)c32)c1 [1f, 3,5-di-MeBn^7GpppG]
Reply: 0.95

Ask: # query: hDcpS Assay: fraction of the cap remaining after 1 h incubation with DcpS of entry Nc1nc(O)c2c(n1)n([C@@H]1O[C@H](COP(=O)(O)OP(=O)([O-])OP(=O)(O)OC[C@H]3O[C@@H](n4cnc5c(=O)[nH]c(N)nc54)[C@H](O)[C@@H]3O)[C@@H](O)[C@H]1O)c[n+]2Cc1ccc(Cl)cc1 [1h, 4-Cl-Bn^7GpppG]
Reply: 0.67

Ask: # query: hDcpS Assay: fraction of the cap remaining after 1 h incubation with DcpS of entry CO[C@@H]1[C@H](O)[C@@H](COP(=O)(O)OP(=O)([O-])OP(=O)(O)OC[C@H]2O[C@@H](n3cnc4c(=O)[nH]c(N)nc43)[C@H](O)[C@@H]2O)O[C@H]1n1c[n+](Cc2ccc(Cl)cc2)c2c(O)nc(N)nc21 [1r, 4-Cl-Bn^7GmpppG]
Reply: 0.99

Ask: # query: hDcpS Assay: fraction of the cap remaining after 1 h incubation with DcpS of entry Nc1nc(O)c2c(n1)n([C@@H]1O[C@H](COP(=O)(O)OP(=O)([O-])OP(=O)(O)OC[C@H]3O[C@@H](n4cnc5c(=O)[nH]c(N)nc54)[C@H](O)[C@@H]3O)[C@@H](O)[C@H]1O)c[n+]2Cc1ccc(Br)cc1 [1i, 4-Br-Bn^7GpppG]
Reply: 0.60

Ask: # query: hDcpS Assay: fraction of the cap remaining after 1 h incubation with DcpS of entry Nc1nc(O)c2c(n1)n([C@@H]1O[C@H](COP(=O)(O)OP(=O)([O-])OP(=O)(O)OC[C@H]3O[C@@H](n4cnc5c(=O)[nH]c(N)nc54)[C@H](O)[C@@H]3O)[C@@H](O)[C@H]1O)c[n+]2Cc1ccc(F)cc1 [1g, 4-F-Bn^7GpppG]
Reply: 0.76

Reference for the values: paper PMC8623273
